# Tested on: hepatocytes
# Assay Text: RNA-seq of hepatocytes treated with Phase III failure compounds
# Stated Conditions: gene SC5D; hepatocytes
Measured Property: RNA-seq results: SC5D
One number for each entry.

Previously resolved entries follow.
Compound	Assay Value
Cn1cnc2c(F)c(Nc3ccc(Br)cc3Cl)c(C(=O)NOCCO)cc21 [Selumetinib]	−0.23
CCC(CC)[C@H](NC(C)=O)[C@@H]1[C@H](O)[C@@H](C(=O)O)C[C@H]1NC(=N)N.O.O.O [peramivir (trihydrate), peramivir]	−0.56
COc1cc2nccc(Oc3ccc(NC(=O)Nc4cc(C)on4)c(Cl)c3)c2cc1OC [Tivozanib]	0.47
O=P(O)(NCCCl)NCCCl [Palifosfamide]	−0.37
Cn1cc(C2=C(c3cn(C4CCN(Cc5ccccn5)CC4)c4ccccc34)C(=O)NC2=O)c2ccccc21 [Enzastaurin]	0.23

Parameter requested: RNA-seq results: SC5D. Apply to each item below.
1. C=CCNC1=C2C[C@@H](C)C[C@H](OC)[C@H](O)[C@@H](C)/C=C(\C)[C@H](OC(N)=O)[C@@H](OC)/C=C\C=C(/C)C(=O)NC(=CC1=O)C2=O [17-MG (Tanespimycin), Tanespimycin]
2. CCOC(=O)N1c2ccc(C(F)(F)F)cc2[C@@H](N(Cc2cc(C(F)(F)F)cc(C(F)(F)F)c2)C(=O)OC)C[C@H]1CC [Torcetrapib]

Result:
1.56
−0.01

* * *

So I've got a bunch of molecules here, and I need their RNA-seq results: CYP7B1 expression values.
# Test system: hepatocytes
# Assay Text: RNA-seq of hepatocytes treated with Phase III failure compounds
One number for each entry.

In [3]: df
Out[3]:
                               query_smiles  assay_value
0  CCN(CC)CCN(Cc1ccc(-c2ccc(C(F)(F)F)cc2)cc1)C(=O)Cn1c(SCc2ccc(F)cc2)nc(=O)c2c1CCC2        −0.46
1  Cn1cnc2c(F)c(Nc3ccc(Br)cc3Cl)c(C(=O)NOCCO)cc21         −0.3

Read the next record carefully.
Q: Suppose we examine the molecule C=CCNC1=C2C[C@@H](C)C[C@H](OC)[C@H](O)[C@@H](C)/C=C(\C)[C@H](OC(N)=O)[C@@H](OC)/C=C\C=C(/C)C(=O)NC(=CC1=O)C2=O ; what RNA-seq results: CYP7B1 expression value has been reported?
Result: −1.05

From: patent US20210254056A1
